Origin of measurements: PubChem BioAssay (NCI)

- Tested on: CAKI-1 renal
- assay text: NCI-60 one-dose screen, 48 h (100 = growth as untreated, 0 = no growth, -100 = all killed)
- experimental parameters: 10 µM unless noted
About 83,000 compounds went through this panel and 20% of them were active in at least one assay; those are over-represented in the sample as a whole.
readout name: growth (%)
# number only, unit % dropped from output

Cc1ccc2[nH]c(=S)n(-c3ccc(S(=O)(=O)Nc4ccc(Cl)nn4)cc3)c(=O)c2c1 = 90.6
Cc1ccc(S(=O)(=O)Nc2ccc(Cl)cc2)cc1 = 82.3
COc1cc2ncnc(Nc3ccc(C(=O)/C=C/c4ccc(C(F)(F)F)cc4F)cc3)c2cc1OC = 88.2
CS(=O)(=O)c1ccc(-c2cc3c(oc2=O)-c2ccccc2OC3O)cc1 (stereo not given) = 75.4

Entry Fc1ccccc1CSc1ncnc2nc[nH]c12 ; growth = 103
